# System: MDA-MB-468 breast
# Method summary: NCI-60 one-dose screen, 48 h
# Study conditions: 10 µM unless noted
About 83,000 compounds went through this panel and 20% of them were active in at least one assay; those are over-represented in the sample as a whole. Calls of active or inactive are those of the source. The calls were made as follows: active = growth percent below 10; inactive = the rest.
Assign a class; possible classes are active, inactive

Use the examples below as a reference point.
Compound	Qualitative label
CCOc1ccc(/C=N/N=C(N)N)cc1OCC	inactive
CC(=O)O[C@]1(C(C)=O)CC[C@H]2[C@@H]3C=C(Cl)C4=CC(=O)CC[C@]4(C)[C@H]3CC[C@@]21C	inactive
CC(=O)c1ccc(C)c(N)c1	inactive

Give the logged outcome of this assay for the following compound: O=C1/C(=C/C=C/c2ccco2)SC(=S)N1Cc1ccccc1 inactive

Give the logged outcome of this assay for the following compound: C#Cc1cccc(NC(=O)c2ccc(NC(=O)C=C)cc2)c1 inactive

Give the logged outcome of this assay for the following compound: O=C1/C(=C/c2cccs2)CCC/C1=C\c1cccs1 active

Give the logged outcome of this assay for the following compound: CCOC(=O)CC(S(=O)(=O)c1ccccc1)S(=O)(=O)c1ccccc1 inactive

Give the logged outcome of this assay for the following compound: COC(=O)[C@]1(C)CCC[C@]2(C)[C@H]3C[C@H]4C(C(C)C)=C[C@]3(CC[C@H]21)[C@@H]1C(=O)CC[C@H](OCCC#N)[C@@H]14 inactive

Give the logged outcome of this assay for the following compound: COc1cc(-c2cc(C(=O)N3CCN(C(=O)c4ccccc4NCc4ccco4)CC3)nc3cc(-c4ccccc4)nn23)cc(OC)c1OC active

Give the logged outcome of this assay for the following compound: O=C1CC(c2ccc3c(c2)OCO3)Nc2cc3c(cc21)OCO3 (stereo not given) active
